test: The drug is tested on Parabacteroides merdae strain: ATCC43184 for biotransformation. The drug concentrations were measured before and after a 12-h incubation by liquid-chromatography-coupled mass spectrometry (LC–MS); settings: 2 µM
Readout Type: Bacterial Biotransformation

[
  {
    "Compound": "CC(C)NCC(O)COc1ccc(COCCOC(C)C)cc1.CC(C)NCC(O)COc1ccc(COCCOC(C)C)cc1.O=C(O)/C=C/C(=O)O (stereo unspecified) [BISOPROLOL FUMARATE]",
    "Bacterial Biotransformation": "Compound NOT metabolized"
  },
  {
    "Compound": "CCCc1nn(C)c2c(=O)[nH]c(-c3cc(S(=O)(=O)N4CCN(C)CC4)ccc3OCC)nc12.O=C(O)CC(O)(CC(=O)O)C(=O)O [SILDENAFIL CITRATE]",
    "Bacterial Biotransformation": "Compound NOT metabolized"
  },
  {
    "Compound": "COCCc1ccc(OCC(O)CNC(C)C)cc1.COCCc1ccc(OCC(O)CNC(C)C)cc1.O=C(O)C(O)C(O)C(=O)O (stereo unspecified) [METOPROLOL TARTRATE]",
    "Bacterial Biotransformation": "Compound NOT metabolized"
  },
  {
    "Compound": "CC(C)(C)NC[C@H](O)COc1ccccc1C1CCCC1.CC(C)(C)NC[C@H](O)COc1ccccc1C1CCCC1.O=S(=O)(O)O [PENBUTOLOL SULFATE]",
    "Bacterial Biotransformation": "Compound NOT metabolized"
  },
  {
    "Compound": "O=C1C(CC[S+]([O-])c2ccccc2)C(=O)N(c2ccccc2)N1c1ccccc1 (stereo unspecified)",
    "Bacterial Biotransformation": "Compound NOT metabolized"
  },
  {
    "Compound": "OC(CCN1CCCCC1)(c1ccccc1)C1CC2C=CC1C2 (stereo unspecified)",
    "Bacterial Biotransformation": "Compound NOT metabolized"
  }
]

Return reported Bacterial Biotransformation. Input compound: COc1ccc([C@@H]2Sc3ccccc3N(CCN(C)C)C(=O)[C@@H]2OC(C)=O)cc1
Compound metabolized

Return reported Bacterial Biotransformation. Input compound: CNC(=C[N+](=O)[O-])NCCSCc1csc(CN(C)C)n1
Compound NOT metabolized

Return reported Bacterial Biotransformation. Input compound: COc1ccc(CN2CCNCC2)c(OC)c1OC.Cl.Cl [TRIMETAZIDINE DIHYDROCHLORIDE]
Compound metabolized

Return reported Bacterial Biotransformation. Input compound: CN[C@H]1CC[C@@H](c2ccc(Cl)c(Cl)c2)c2ccccc21
Compound NOT metabolized

Return reported Bacterial Biotransformation. Input compound: CCCN(CCC)CCc1cccc2c1CC(=O)N2
Compound NOT metabolized

Return reported Bacterial Biotransformation. Input compound: CC(=O)OCC(CCn1cnc2cnc(N)nc21)COC(C)=O
Compound metabolized

---

experiment: The drug is tested on Parabacteroides merdae strain: ATCC43184 for biotransformation. The drug concentrations were measured before and after a 12-h incubation by liquid-chromatography-coupled mass spectrometry (LC–MS); details: 2 µM

[
  {
    "Molecule": "CN1CCC[C@@H]1CCO[C@](C)(c1ccccc1)c1ccc(Cl)cc1.O=C(O)/C=C/C(=O)O [CLEMASTINE FUMARATE]",
    "Bacterial Biotransformation": "Compound NOT metabolized"
  },
  {
    "Molecule": "CNCC[C@H](Oc1cccc2ccccc12)c1cccs1",
    "Bacterial Biotransformation": "Compound metabolized"
  },
  {
    "Molecule": "CC(C)(Oc1ccc(CCNC(=O)c2ccc(Cl)cc2)cc1)C(=O)O [BEZAFIBRATE]",
    "Bacterial Biotransformation": "Compound metabolized"
  },
  {
    "Molecule": "C=CC[C@@H]1/C=C(\\C)C[C@H](C)C[C@H](OC)[C@H]2O[C@@](O)(C(=O)C(=O)N3CCCC[C@H]3C(=O)O[C@H](/C(C)=C/[C@@H]3CC[C@@H](O)[C@H](OC)C3)[C@H](C)[C@@H](O)CC1=O)[C@H](C)C[C@@H]2OC.O",
    "Bacterial Biotransformation": "Compound NOT metabolized"
  }
]
